Data provenance: patent US9862676B2

Test system: Escherichia coli ATCC25922 strain
assay_overview: Antibacterial activity, MIC by broth microdilution (CLSI)
Assay type: cell-based
Method: The minimum inhibitory concentration (MIC) was measured according to the CLSI (Clinical and Laboratory Standards Institute) standard method using a broth microdilution method given below. The bacteria used were a Pseudomonas aeruginosa ATCC27853 strain, an Escherichia coli ATCC25922 strain and a Klebsiella pneumoniae ATCC13883 strain. […]
MIC for assorted compounds

compound	target_or_system	MIC (µg/mL)
CNC(=O)[C@@](C)(C(=O)NO)N(C)C(=O)c1ccc(C#Cc2ccc(CO[C@H](C)CO)cc2)cc1 [Example 10]	Escherichia coli ATCC25922 strain	0.25
CNC(=O)[C@@](C)(C(=O)NO)N(C)C(=O)c1ccc(C#Cc2ccc([C@H](O)COCCCO)cc2)cc1 [Example 28]	Escherichia coli ATCC25922 strain	0.5
CNC(=O)[C@@](C)(C(=O)NO)N(C)C(=O)c1ccc(C#Cc2ccc(CO[C@@H](C)CO)cc2)cc1 [Example 8]	Escherichia coli ATCC25922 strain	0.25
CNC(=O)[C@@](C)(C(=O)NO)N(C)C(=O)c1ccc(C#Cc2ccc(C(CO)OC)cc2)cc1 (stereo partly shown) [Example 9]	Escherichia coli ATCC25922 strain	0.5
CNC(=O)[C@@](C)(C(=O)NO)N(C)C(=O)c1ccc(C#Cc2ccc([C@H](O)/C=C/CO)cc2)cc1 [Example 40]	Escherichia coli ATCC25922 strain	0.5
CNC(=O)[C@@](C)(C(=O)NO)N(C)C(=O)c1ccc(C#Cc2ccc([C@H](O)[C@@H](C)O)cc2)cc1 [Example 34]	Escherichia coli ATCC25922 strain	0.5
CNC(=O)[C@@](C)(C(=O)NO)N(C)C(=O)c1ccc(C#Cc2ccc([C@H](O)CCCO)cc2)cc1 [Example 39]	Escherichia coli ATCC25922 strain	0.5

---

Test system: Klebsiella pneumoniae ATCC13883 strain
assay_overview: Antibacterial activity, MIC by broth microdilution (CLSI)
Type: cell-based
experimental_readout: MIC (µg/mL)

molecule	target_or_system	measurement_units	endpoint_value
CNC(=O)[C@@](C)(C(=O)NO)N(C)C(=O)c1ccc(C#Cc2ccc(/C=C/COC)cc2)cc1	Klebsiella pneumoniae ATCC13883 strain	µg/mL	0.125
CNC(=O)[C@@](C)(C(=O)NO)N(C)C(=O)c1ccc(C#Cc2ccc([C@H](O)/C=C/CO)cc2)cc1	Klebsiella pneumoniae ATCC13883 strain	µg/mL	1
CNC(=O)[C@@](C)(C(=O)NO)N(C)C(=O)c1ccc(C#Cc2ccc(COCCOC(C)=O)cc2)cc1	Klebsiella pneumoniae ATCC13883 strain	µg/mL	0.5
CCOC[C@@H](O)c1ccc(C#Cc2ccc(C(=O)N(C)[C@@](C)(C(=O)NC)C(=O)NO)cc2)cc1	Klebsiella pneumoniae ATCC13883 strain	µg/mL	0.5
CNC(=O)[C@@](C)(C(=O)NO)N(C)C(=O)c1ccc(C#Cc2ccc(C(O)COC)cc2)cc1 (stereo partly drawn)	Klebsiella pneumoniae ATCC13883 strain	µg/mL	1
CNC(=O)[C@@](C)(C(=O)NO)N(C)C(=O)c1ccc(C#Cc2ccc(COC3COC3)cc2)cc1	Klebsiella pneumoniae ATCC13883 strain	µg/mL	0.5

---

System: Klebsiella pneumoniae ATCC13883 strain
assay_overview: Antibacterial activity, MIC by broth microdilution (CLSI)
Type: cell-based
Listed here are compounds together with their documented MIC.
experimental_readout: MIC (mg/L)

compound	endpoint_value
CNC(=O)[C@@](C)(C(=O)NO)N(C)C(=O)c1ccc(C#Cc2ccc([C@H](O)CCOC)cc2)cc1	1
CNC(=O)[C@@](C)(C(=O)NO)N(C)C(=O)c1ccc(C#Cc2ccc(COCC(C)(C)O)cc2)cc1	0.5
CNC(=O)[C@@](C)(C(=O)NO)N(C)C(=O)c1ccc(C#Cc2ccc(C(C)O)cc2)cc1 (stereo partly shown)	1
CNC(=O)[C@@](C)(C(=O)NO)N(C)C(=O)c1ccc(C#Cc2ccc(C(O)CCCO)cc2)cc1 (stereo partly shown)	1
